Target: UniProt Q923Y9
Test: Radioligand binding assay on rat TAAR1
Details: read-out: Ki (μM) rat
Where a name gives a salt, the structure may show the parent alone.
Lab note - cut at 0.002 µM for Ki: y if strictly below, n if not.

molecule	tested-target	group
O=C(Nc1ccc(C2CNCCO2)cc1)c1ccccc1 (racemic) [Example 188, hydrochloride]	UniProt Q923Y9	n

hey, is Ki for O=C(Nc1ccc(C2CNCCO2)cc1)c1ccc(Cl)nc1 (racemic) [Example 193, hydrochloride] lower than 0.002 µM or not?
n

hey, is Ki for O=C(Nc1ccc([C@@H]2CNCCO2)cc1)c1ccc(Cl)nc1 [Example 207, hydrochloride] lower than 0.002 µM or not?
n

hey, is Ki for O=C(Nc1ccc([C@H]2CNCCO2)cc1)Nc1ccc(C(F)(F)F)cc1 [Example 312, hydrochloride] lower than 0.002 µM or not?
y

hey, is Ki for CSc1cccc(C(=O)Nc2ccc([C@@H]3CCCNC3)cc2)c1 lower than 0.002 µM or not?
y

hey, is Ki for O=C(Nc1ccc([C@@H]2CCCNC2)cc1)c1ccc(C(F)(F)F)nc1 [Example 242, hydrochloride] lower than 0.002 µM or not?
n

====

Target: rat TAAR1 (Rattus norvegicus (Rat))
Sequence (Q923Y9 whole entry): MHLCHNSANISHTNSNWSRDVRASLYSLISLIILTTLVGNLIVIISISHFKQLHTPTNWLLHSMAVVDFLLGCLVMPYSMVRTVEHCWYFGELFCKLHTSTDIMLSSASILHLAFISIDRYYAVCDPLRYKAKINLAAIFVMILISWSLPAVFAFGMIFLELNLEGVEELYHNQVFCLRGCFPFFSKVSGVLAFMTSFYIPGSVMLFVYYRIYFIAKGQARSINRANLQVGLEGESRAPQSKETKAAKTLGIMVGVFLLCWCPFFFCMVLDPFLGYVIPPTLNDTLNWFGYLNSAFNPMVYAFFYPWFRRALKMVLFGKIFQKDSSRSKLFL
Test: Radioligand binding assay on rat TAAR1
Details: rat TAAR1, HEK-293 membranes, second value of cell mouse/rat; read-out: Ki (μM) rat
Where a name gives a salt, the structure may show the parent alone.
Field: Ki. Provide a value for each of the compounds that follow.
Give bare numbers, in µM.

compound	measured-parameter	numeric-readout
O=C(Nc1ccc([C@@H]2CCCNC2)cc1)c1ccc(Br)nc1 [Example 252, 2,2,2-trifluoroacetate]	Ki	0.0044
O=C(Nc1ccc(C2CCNC2)cc1)c1cc2ccccc2c(Cl)n1 (racemic) [Example 108, hydrochloride]	Ki	0.0081
O=C(Nc1ccc(CCC2CCCN2)cc1)c1ccc(Cl)cc1 (racemic) [Example 142, hydrochloride]	Ki	0.0004
O=C(Nc1ccc(CC2CCNC2)cc1)c1ccc(Cl)cc1 (racemic) [Example 149, hydrochloride]	Ki	0.001
O=C(Nc1ccc(C2CCCNC2)cc1)Nc1ccc(Cl)nc1 (racemic) [Example 79, hydrochloride]	Ki	0.0924
O=C(Nc1ccc([C@@H]2CCCNC2)cc1)c1ccc(Cl)nc1 [Example 162, hydrochloride]	Ki	0.0092

// batch mode: one Ki value per listed entry
1. O=C(COc1ccc(Cl)cc1)Nc1ccc([C@@H]2CCCNC2)cc1 [Example 235, hydrochloride]
2. CCOc1ccc(C(=O)Nc2ccc(C3CNCCO3)cc2)cn1 (racemic) [Example 245, hydrochloride]

1. 0.0006
2. 0.0063

// batch mode: one Ki value per listed entry
1. O=C(Nc1ccc(C2CNCCO2)cc1)c1ccc(OC2CCOCC2)nc1 (racemic) [Example 232, hydrochloride]
2. O=C(Nc1ccc(C2CNCCO2)cc1)c1csc(-c2cnccn2)n1 (racemic) [Example 288, hydrochloride]
3. O=C(Nc1ccc([C@@H]2CCCNC2)cc1)c1ccc(Cl)cn1 [Example 168, hydrochloride]
4. O=C(Nc1ccc(C2CCCNC2)cc1)c1ccc(Cl)cc1 (racemic) [Example 58, hydrochloride]
5. O=C(Nc1ccc(CCC2CCCCN2)cc1)c1ccc(Cl)c(Cl)c1 (racemic) [Example 176, hydrochloride]

1. 0.0317
2. 0.0075
3. 0.0026
4. 0.0022
5. 0.001

// batch mode: one Ki value per listed entry
1. O=C(Nc1ccc(C2CNCCO2)cc1)c1ccc(C(F)(F)F)cn1 (racemic) [Example 141, hydrochloride]
2. O=C(Nc1ccc(C2CCCNC2)cc1)c1cnc(Cl)cn1 (racemic) [Example 160, hydrochloride]

1. 0.0024
2. 0.0046

====

Biological target: mouse TAAR1 (Mus musculus (Mouse))
Experiment: Radioligand binding assay on mouse TAAR1
Details: mouse TAAR1, HEK-293 membranes, first value of cell mouse/rat; read-out: Ki (μM) mouse
Counter-ions that a name gives are not always drawn.
Field: log10 of Ki. Provide a value for each of the compounds that follow.
// stored as log10 of Ki expressed in µM

Below are worked cases with known answers.
compound	tested-target	log10 of Ki
CCCc1ccc(C(=O)Nc2ccc([C@@H]3CCCNC3)cc2)cn1 [Example 289]	mouse TAAR1 (Mus musculus (Mouse))	-0.84
O=C(Nc1ccc([C@@H]2CNCCO2)cc1)c1ccc(C(F)(F)F)nc1 [Example 283, hydrochloride]	mouse TAAR1 (Mus musculus (Mouse))	-2.22
O=C(Nc1ccc(C2CCNC2)cc1)c1ccc(Br)cn1 (racemic) [Example 87, hydrochloride]	mouse TAAR1 (Mus musculus (Mouse))	-2.29
O=C(Nc1ccc([C@H]2CCNC2)cc1)c1ccc(OCC(F)(F)F)nc1 [Example 204, hydrochloride]	mouse TAAR1 (Mus musculus (Mouse))	-2.30
CCOc1ccc(C(=O)Nc2ccc(CCC3CCCN3)cc2)cc1 (racemic) [Example 158, hydrochloride]	mouse TAAR1 (Mus musculus (Mouse))	-1.49
N#Cc1ccc(C(=O)Nc2ccc(C3CCNC3)cc2)nc1 (racemic) [Example 165, hydrochloride]	mouse TAAR1 (Mus musculus (Mouse))	-0.90
Cc1nc(C(=O)Nc2ccc(C3CNCCO3)cc2)cs1 (racemic) [Example 217, hydrochloride]	mouse TAAR1 (Mus musculus (Mouse))	-0.47

Attention now shifts to the item below.
Provide log10 of Ki, tested on mouse TAAR1 (Mus musculus (Mouse)), for O=C(Nc1ccc(C2CCNC2)cc1)Nc1ccc(Cl)cc1Cl (racemic) [Example 7, hydrochloride] .
-2.55

====

Field: Ki. Provide a value for each of the compounds that follow.
Biological target: mouse TAAR1 (Mus musculus (Mouse), UniProt Q923Y8)
Sequence (Q923Y8 whole entry): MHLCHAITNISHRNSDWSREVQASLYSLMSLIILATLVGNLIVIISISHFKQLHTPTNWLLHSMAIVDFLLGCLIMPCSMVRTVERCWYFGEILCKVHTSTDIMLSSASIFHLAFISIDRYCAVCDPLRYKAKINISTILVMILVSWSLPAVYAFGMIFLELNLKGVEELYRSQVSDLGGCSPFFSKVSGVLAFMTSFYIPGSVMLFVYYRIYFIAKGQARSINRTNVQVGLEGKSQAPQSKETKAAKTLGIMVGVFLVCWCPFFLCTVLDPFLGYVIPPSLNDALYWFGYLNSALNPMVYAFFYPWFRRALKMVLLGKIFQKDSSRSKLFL
Experiment: Radioligand binding assay on mouse TAAR1
Conditions: mouse TAAR1, HEK-293 membranes, first value of cell mouse/rat; read-out: Ki (μM) mouse
Where a name gives a salt, the structure may show the parent alone.
Give bare numbers, in µM.

Below are worked cases with known answers.
compound	measured-parameter	unit-tag	numeric-readout
O=C(Nc1ccc([C@H]2CNCCO2)cc1)Nc1ccc(C(F)(F)F)cc1 [Example 312, hydrochloride]	Ki	µM	0.0007
COc1ccc(C(=O)Nc2ccc(C3CNCCO3)cc2)cc1 (racemic) [Example 190, hydrochloride]	Ki	µM	0.0501
O=C(NCc1ccc([C@@H]2CNCCO2)cc1)c1ccc(Cl)nc1 [Example 315, hydrochloride]	Ki	µM	1.35
COc1ccc(C(=O)Nc2ccc(C3CCNC3)cc2)cc1 (racemic) [Example 183, hydrochloride]	Ki	µM	0.0526
O=C(CCc1ccc(Cl)cc1)Nc1ccc(C2CCCNC2)cc1 (racemic) [Example 101, hydrochloride]	Ki	µM	0.002

// batch mode: one Ki value per listed entry
1. O=C(Nc1ccc(C2CNCCO2)cc1)c1ccc(Cl)c(Cl)c1 (racemic) [Example 147, hydrochloride]
2. O=C(Nc1ccc(C2CCCNC2)cc1)c1ccc(OCC(F)(F)F)cn1 (racemic) [Example 191, hydrochloride]

1. 0.001
2. 0.011

====

Target: mouse TAAR1 (Mus musculus (Mouse), UniProt Q923Y8)
Assay: Radioligand binding assay on mouse TAAR1
Conditions: read-out: Ki (μM) mouse
Counter-ions that a name gives are not always drawn.
Field: Ki. Provide a value for each of the molecules that follow.
Put down the number, then write its unit next to it.

Below are worked cases with known answers.
molecule	Ki
N#Cc1ccc(C(=O)Nc2ccc(C3CCNC3)cc2)cc1 (racemic) [Example 55, hydrochloride]	0.0048 µM
Cc1cc(C(=O)Nc2ccc([C@@H]3CCCNC3)cc2)ccc1Cl [Example 226, hydrochloride]	0.0555 µM
O=C(Nc1ccc([C@H]2CNCCO2)cc1)c1cccc(Cl)c1 [Example 263, hydrochloride]	0.0152 µM
O=C(Nc1ccc([C@H]2CCCNC2)cc1)c1ccc(Cl)c(Cl)c1 [Example 150, hydrochloride]	0.002 µM

// batch mode: one Ki value per listed entry
1. O=C(Nc1ccc([C@H]2CNCCO2)cc1)c1ccc(C(F)(F)F)nc1 [Example 284, hydrochloride]
2. O=C(Nc1ccc(C2CNCCO2)cc1)c1ccc(Cl)cc1F (racemic) [Example 146, hydrochloride]
3. O=C(Nc1ccc([C@@H]2CNCCO2)cc1)c1ccc(Cl)cc1 [Example 143, hydrochloride]

["0.0128 µM", "0.0268 µM", "0.0054 µM"]

// batch mode: one Ki value per listed entry
1. COc1ccc(C(=O)Nc2ccc([C@H]3CCCNC3)cc2)cc1Cl [Example 202, hydrochloride]
2. C[C@H]1CO[C@@H](c2ccc(NC(=O)c3cccc(Cl)c3)cc2)CN1 [Example 322, hydrochloride]
3. Cc1ccc(C(=O)Nc2ccc([C@@H]3CCCNC3)cc2)cc1C [Example 227, hydrochloride]
4. CN1CCN(c2ccc(NC(=O)Nc3ccc(Cl)c(Cl)c3)cc2)CC1

1: 0.0087 µM; 2: 0.0188 µM; 3: 0.177 µM; 4: 0.0006 µM

====

Molecular target: mouse TAAR1 (Mus musculus (Mouse))
Assay: Radioligand binding assay on mouse TAAR1
Settings: mouse TAAR1, HEK-293 membranes, first value of cell mouse/rat; read-out: Ki (μM) mouse
Structures can show the parent of a compound that is named as a salt.
Field: Ki. Provide a value for each of the compounds that follow.
Numbers only, in µM.

Below are worked cases with known answers.
compound	Ki (µM)
O=C(Nc1ccc([C@H]2CNCCO2)cc1)c1ccc(Cl)nc1 [Example 208, hydrochloride]	0.0762
Cc1ccc(C(=O)Nc2ccc([C@@H]3CCCNC3)cc2)cn1 [Example 243, hydrochloride]	2.12
Cc1ccc(C(=O)Nc2ccc([C@H]3CCCNC3)cc2)cn1 [Example 264, hydrochloride]	0.297

Attention now shifts to the item below.
Supply measured Ki of O=C(Nc1ccc(C2CNCCO2)cc1)Nc1ccc(C(F)(F)F)cc1 (racemic) [Example 291, hydrochloride] in your reply.
0.0012
